Overview of reported variant/HC_D62R across a group of binders:
Target: T1, human tissue factor pathway inhibitor (TFPI) (human, UniProt P10646 29-304, limits assumed)
T1 construct: bought; also called hTFPI; human TFPI
T1 sequence (looked up): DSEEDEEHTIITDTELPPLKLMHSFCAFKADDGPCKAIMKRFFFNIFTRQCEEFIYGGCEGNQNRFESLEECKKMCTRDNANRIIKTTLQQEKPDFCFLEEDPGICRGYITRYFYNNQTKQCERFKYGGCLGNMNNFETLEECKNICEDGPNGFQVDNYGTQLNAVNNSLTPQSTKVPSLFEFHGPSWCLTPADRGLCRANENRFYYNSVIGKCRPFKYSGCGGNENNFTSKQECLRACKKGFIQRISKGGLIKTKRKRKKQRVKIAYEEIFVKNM
Experiment: competitive ELISA
Give the number; ratio is assumed, so skip it.

4B7 HC D62R+Y112D/LC S32R+D33F+N35I (Fab, V domains shown) VH: QVQLQQSGPGLVKPSQTLSLTCAISGDSVSSNSAAWSWIRQSPGRGLEWLGIIYKRSKWYNRYAVSVKSRITINPDTSKNQFSLQLNSVTPEDTAVYYCARWHSDKHWGFDDWGQGTLVTVSS VL: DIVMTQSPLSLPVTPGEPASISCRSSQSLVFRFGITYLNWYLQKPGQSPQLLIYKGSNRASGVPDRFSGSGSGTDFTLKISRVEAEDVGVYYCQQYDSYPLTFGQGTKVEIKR : 21.9

Now examine the next entry.
Prompt: What value of measured variant/HC_D62R is listed for 4B7 HC N32D+D62Q+Y112D/LC F31I+D33F+N35I+S98H (Fab, V domains shown) VH: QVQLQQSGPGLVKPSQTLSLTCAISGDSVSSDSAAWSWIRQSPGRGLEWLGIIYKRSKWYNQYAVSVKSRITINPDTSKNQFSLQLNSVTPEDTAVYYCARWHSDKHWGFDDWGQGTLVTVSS VL: DIVMTQSPLSLPVTPGEPASISCRSSQSLVISFGITYLNWYLQKPGQSPQLLIYKGSNRASGVPDRFSGSGSGTDFTLKISRVEAEDVGVYYCQQYDHYPLTFGQGTKVEIKR ?
Response: 13.5
